# Emax values compiled below
biological target: UniProtKB Q96EB6; assay: Trp mass spectrometry assay of SIRT1 activity; type: biochemical; settings: percent maximum fold activation of SIRT1; Trp peptide substrate; read-out: Trp % Fold Act
Sequence (Q96EB6 whole entry): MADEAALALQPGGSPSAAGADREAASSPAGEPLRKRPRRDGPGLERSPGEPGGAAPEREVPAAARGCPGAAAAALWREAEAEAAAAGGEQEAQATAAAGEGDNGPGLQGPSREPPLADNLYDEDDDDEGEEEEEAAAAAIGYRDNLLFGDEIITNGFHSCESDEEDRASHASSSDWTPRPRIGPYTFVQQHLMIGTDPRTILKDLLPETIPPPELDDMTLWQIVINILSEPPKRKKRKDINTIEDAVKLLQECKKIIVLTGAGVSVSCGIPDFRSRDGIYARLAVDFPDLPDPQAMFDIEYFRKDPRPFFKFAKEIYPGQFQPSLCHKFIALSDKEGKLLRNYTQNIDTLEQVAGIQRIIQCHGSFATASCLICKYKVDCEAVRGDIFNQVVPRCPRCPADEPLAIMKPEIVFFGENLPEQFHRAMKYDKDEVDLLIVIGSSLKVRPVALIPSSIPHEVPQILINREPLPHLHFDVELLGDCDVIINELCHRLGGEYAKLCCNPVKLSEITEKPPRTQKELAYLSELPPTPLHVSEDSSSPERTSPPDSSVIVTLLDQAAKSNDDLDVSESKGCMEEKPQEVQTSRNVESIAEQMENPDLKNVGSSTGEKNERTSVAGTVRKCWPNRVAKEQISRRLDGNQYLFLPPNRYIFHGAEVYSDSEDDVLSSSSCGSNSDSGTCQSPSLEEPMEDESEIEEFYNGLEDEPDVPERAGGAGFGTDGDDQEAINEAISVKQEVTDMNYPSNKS

{"molecule": "O=C(Nc1ccccn1)c1cnc2ccc(-c3cccc(F)c3Cl)nn12 [Compound 182]", "Emax": "< 350%"}
{"molecule": "Cc1nc2ccc(N3CCC[C@H]3C(F)(F)F)nn2c1C(=O)Nc1cncc(F)c1 [Compound 1017]", "Emax": "≥ 350%"}
{"molecule": "O=C(Nc1cnccc1N1CCOCC1)c1cnc2ccc(-c3ccccc3C(F)(F)F)nn12 [Compound 177]", "Emax": "< 350%"}
{"molecule": "Cc1nc(NC(=O)c2c(C)nn3ccc(N4CCC[C@H]4C(F)(F)F)nc23)sc1C [Compound 1033]", "Emax": "≥ 350%"}
{"molecule": "Cc1nc2ccc(N3CCC[C@H]3C(F)(F)F)nn2c1C(=O)Nc1cccnc1 [Compound 1016]", "Emax": "≥ 350%"}
{"molecule": "O=C(Nc1nc(CN2CCOCC2)cs1)c1cnc2ccc(-c3ccccc3C(F)F)nn12 [Compound 35]", "Emax": "< 350%"}
{"molecule": "Cc1cnc(NC(=O)c2cnc3ccc(-c4cccc(C(F)(F)F)c4)nn23)s1 [Compound 17]", "Emax": "< 350%"}
{"molecule": "O=C(Nc1cccnc1)c1cnc2ccc(-c3cccc(C(F)(F)F)c3)nn12 [Compound 2]", "Emax": "≥ 350%"}
{"molecule": "O=C(Nc1cccc(-c2cnco2)n1)c1cnc2ccc(N3CCCC3C(F)(F)F)nn12 (stereo not drawn) [Compound 1099]", "Emax": "≥ 350%"}
{"molecule": "Cc1cc(NC(=O)c2cnc3ccc(-c4ccccc4C(F)(F)F)nn23)ccn1 [Compound 102]", "Emax": "≥ 350%"}
{"molecule": "O=C(Nc1cccnn1)c1cnn2ccc(N3CCCC3C(F)(F)F)nc12 (stereo not drawn) [Compound 1022]", "Emax": "≥ 350%"}
{"molecule": "C[C@H]1CCCN1c1ccc2ncc(C(=O)Nc3ccncn3)n2n1 [Compound 1057]", "Emax": "< 350%"}
{"molecule": "O=C(Nc1cccc(-c2cnco2)n1)c1cnn2ccc(N3CCC[C@@H]3C(F)(F)F)nc12 [Compound 1081]", "Emax": "≥ 350%"}
{"molecule": "O=C(Nc1cnccn1)c1cnn2ccc(N3CCC[C@@H]3C(F)(F)F)nc12 [Compound 1078]", "Emax": "≥ 350%"}
{"molecule": "O=C(Nc1cncc(F)c1)c1cnn2ccc(N3CCC[C@H]3C(F)(F)F)nc12 [Compound 1028]", "Emax": "≥ 350%"}
{"molecule": "COc1nccc(NC(=O)c2cnc3ccc(N4CCC[C@@H]4C)nn23)n1 [Compound 1051]", "Emax": "< 350%"}
{"molecule": "O=C(Nc1ccnc(OCC(O)CO)n1)c1cnc2ccc(-c3ccccc3C(F)(F)F)nn12 (stereo not drawn) [Compound 74]", "Emax": "≥ 350%"}
{"molecule": "O=C(Nc1ccncc1)c1cnc2ccc(-c3ccccc3C(F)(F)F)nn12 [Compound 77]", "Emax": "< 350%"}

====

biological target: UniProt Q96EB6; assay: Trp mass spectrometry assay of SIRT1 activity; assay type: biochemical; conditions: Trp assay; concentration giving 150% activation of SIRT1

{"smilesNotation": "O=C(Nc1ccncn1)c1cnc2ccc(N3CCC(F)(F)C3)nn12", "Trp EC1.5 (μM)": "B (EC1.5 1-25 μM)"}
{"smilesNotation": "O=C(Nc1cnn2ccc(-c3ccccc3C(F)(F)F)nc12)c1ccccn1", "Trp EC1.5 (μM)": "B (EC1.5 1-25 μM)"}
{"smilesNotation": "Cc1nc2ccc(N3CC[C@H](N(C)C)C3)nn2c1C(=O)Nc1cnccn1", "Trp EC1.5 (μM)": "B (EC1.5 1-25 μM)"}
